Assay: log p, n-octanol/water partition coefficient by reverse phase HPLC (H2O/CH3CN)
Assay type: physicochemical
Conditions: n-octanol/water, pH 7.5
parameter measured: chromatographic logP
Write no unit; give the number alone.

| compound | chromatographic logP |
| --- | --- |
| CCCc1cc(-c2ccc(C3COC(c4c(F)cccc4F)=N3)cc2)ccc1O (stereo not drawn) [II-1] | 3.77 |

Data request: Request the reported chromatographic logP associated with `CCOC(=O)Oc1c(Cl)cc(-c2ccccc2)cc1Cl`
Data returned: 4.65

Data request: Continue with C=CCOc1ccc(-c2ccc(C3COC(c4ccccc4C)=N3)cc2)cc1CCC (stereo not drawn) [Example I-314]
Data returned: 6.44
